Would you kindly list apparent KD of MS2 coat protein for each of these sequences?
Tested on: MS2 coat protein
Test: apparent KD of MS2 coat protein; higher = weaker reporter binding
Conditions: Eterna round: R107; input ligand: theophylline 20 uM
One number for each entry, in nM.

Examples with answers:
Sequence	Unit info	apparent KD of MS2 coat protein
CAAGAAGUAACUGAUACCAGUGUACUGACAUGAGGAUCACCCAUGUUGGGUUUUGUUGUACACCCUUGGCAGCAGAAUCUUCUUG [AstrosExyTheB#22]	nM	74.8
CUUGGCUGUGCGGCCGCCACUGACUCAUCCUGCAUUACAUGAGGAUCACCCAUGUUGCGGCCUCCCAGGACCGGGCAUAGCCUGC [Veered]	nM	397
AGCACUGUGACGGCCGCCACUAUAUUAGGGUGGUAGGGUUCAUAAAUACAUGAGGAUCACCCAUGUAGGACCGGGUCUCAGUGCA [Omei Trp Exc B A v1]	nM	15.9

Give me apparent KD of MS2 coat protein for each of these sequences, listed below.
1. UAUAUAGAAGGAAGUCAUAUAGUUGCAGAAGGAGCGUAGGAAACUACAGGUAGGUCGCUGAGGUACAUGAGGAUCACCCAUGUAG [SSArg A #16 Slice of Pi]
2. AAUGUAUGGCACAUGAGGAUCACCCAUGUGCGAGGACCGGUACGGCCGCCACUCGGUCCUGGGAUCUUAUUACUAUACAUUAAUG [XTryp A #17]
3. AAAUAAAUCACAUGAGGAUCACCCAUGGAUACCAGGCCUGGAAACAGCCCUUGGCAGCCACAUGAGGAUCACCCAUGUGCUAAUA [MAT - Exclusion Theophlline A - Mod of Eli - D1]

[41, 15.7, 194]
